Where these numbers come from: patent US11395857B2

- protocol description: Biodistribution of 68Ga-labeled peptide in mice bearing B16F10 mouse melanoma
- Assay type: in vivo, C57BL/6J mice
- condition context: intestine, iv, total radioactivity, 2 h p.i. unblocked, C57BL/6J mice, B16F10 melanoma, read-out: Biodistribution, Intestine
quantity measured: tissue uptake at 2 h (%ID/g)
Numeric only. Scale: %ID/g

The molecule listed as CCCC[C@H](NC(=O)CN1CCC(NC(=O)CN2CCN(CC(=O)O)CCN(CC(=O)O)CCN(CC(=O)O)CC2)CC1)C(=O)N[C@H]1CC(=O)NCCCC[C@@H](C(N)=O)N(C)C(=O)[C@H](Cc2c[nH]c3ccccc23)N(C)C(=O)[C@H](CCCNC(=N)N)N(C)C(=O)[C@@H](Cc2ccccc2)NC(=O)[C@H](Cc2c[nH]cn2)N(C)C1=O [^68Ga-labeled CCZ01099, metal not drawn] shows tissue uptake at 2 h equal to 0.53
